- Test target: Thyrotropin-releasing hormone receptor (Homo sapiens) (UniProt P34981)
- Sequence (P34981 whole entry, looked up): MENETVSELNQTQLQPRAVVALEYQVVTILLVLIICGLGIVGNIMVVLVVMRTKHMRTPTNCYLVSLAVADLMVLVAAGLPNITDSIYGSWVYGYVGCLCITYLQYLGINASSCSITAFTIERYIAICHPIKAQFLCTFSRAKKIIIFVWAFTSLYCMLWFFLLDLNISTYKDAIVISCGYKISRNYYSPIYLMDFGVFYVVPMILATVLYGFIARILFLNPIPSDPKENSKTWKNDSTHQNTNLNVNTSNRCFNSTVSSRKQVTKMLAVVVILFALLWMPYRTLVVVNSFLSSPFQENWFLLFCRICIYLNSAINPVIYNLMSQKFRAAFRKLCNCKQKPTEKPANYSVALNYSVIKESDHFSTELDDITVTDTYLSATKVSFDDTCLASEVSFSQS
- Run description: qHTS for Small Molecule Agonists and Allosteric Enhancers of Human TRH Receptor: Validation Screen for Agonists (AID 493127);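 note: intracellular calcium rise by fluo-8 fluorescence before TRH EC20 addition; 0% is about no effect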
- Condition details: TRH receptor agonist cell assay; at 2 µM; stronger effect = higher value
Active and inactive are the calls of the source.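 Rule for the calls: active = calcium activation more than 3 SD above the typical response in the agonist read; inactive = the rest.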
Experimental readout: activation

Short answer for "CCCN(CCC)CCc1cccc2c1CC(=O)N2" : activation was -3.31% (inactive)

Short answer for "CN(C(=O)CCCOc1ccc2[nH]c(=O)ccc2c1)C1CCCCC1" : activation was 1.44% (inactive)

Short answer for CCN(Cc1ccncc1)C(=O)C(CO)c1ccccc1 (stereo not given) : activation was 0.375% (inactive)

Short answer for "CO[C@@]1(NC(=O)CSCC#N)C(=O)N2C(C(=O)O)=C(CSc3nnnn3C)CS[C@@H]21" : activation was 1.44% (inactive)

Short answer for C=CCc1ccccc1OCC(O)CNC(C)C (stereo not given) : activation was 0.312% (inactive)

Short answer for "CCCCNC(=O)NS(=O)(=O)c1ccc(C)cc1" : activation was 1.25% (inactive)

Short answer for "CCN(CC)CCNC(=O)c1ccc(NC(C)=O)cc1" : activation was 0.312% (inactive)

Short answer for "CCOC(=O)c1cnc2c(cnn2CC)c1NN=C(C)C" : activation was -4.75% (inactive)

Short answer for "CN(C)C(=O)Oc1cccc([N+](C)(C)C)c1" : activation was 0.625% (inactive)

Short answer for "O=C(O)CCCCCCCC(=O)O" : activation was -3.19% (inactive)

Short answer for "CN=C(NC#N)NCCSCc1nc[nH]c1C" : activation was 1.12% (inactive)

Short answer for "NCCCNCCSP(=O)(O)O" : activation was 0.812% (inactive)

Short answer for "COCC(=O)O[C@]1(CCN(C)CCCc2nc3ccccc3[nH]2)CCc2cc(F)ccc2[C@@H]1C(C)C" : activation was 7.31% (inactive)

Short answer for "CCNC(=O)N1CCN(CCCC(c2ccc(F)cc2)c2ccc(F)cc2)CC1" : activation was 6.5% (inactive)

Short answer for "Cc1ccc(=O)n(-c2ccccc2)c1" : activation was 0.875% (inactive)

Short answer for "COC(=O)[C@@H](N)Cc1ccc(O)c(O)c1" : activation was 1% (inactive)

Short answer for Nc1c2c(nc3ccccc13)CCCC2O (stereo not given) : activation was 1.62% (inactive)

Short answer for "Cc1cc(C)c(/C=C2\C(=O)Nc3ccccc32)[nH]1" : activation was 0.562% (inactive)

Short answer for "NC(=O)N1c2ccccc2C=Cc2ccccc21" : activation was 0.625% (inactive)

Short answer for "C[C@H](CS)C(=O)N1CCC[C@H]1C(=O)O" : activation was -0.375% (inactive)

Short answer for CCn1ccnc1CC1COc2ccccc2O1 (stereo not given) : activation was 1.56% (inactive)

Short answer for "Cc1scc2c1N(C(=O)CN1CCN(C)CC1)c1ccccc1NC2=O" : activation was 0.5% (inactive)

Short answer for "CC(=O)OCC1=C(C(=O)O)N2C(=O)[C@@H](NC(=O)Cc3cccs3)[C@H]2SC1" : activation was 0.938% (inactive)

Short answer for "O=C(O)CN(CCN(CC(=O)O)CC(=O)O)CCN(CC(=O)O)CC(=O)O" : activation was 1.81% (inactive)

Short answer for "CC1=C(C)C(=O)C(CCCCC#CCCCC#CCO)=C(C)C1=O" : activation was -4.88% (inactive)

----------
- Run description: qHTS assay for small molecule agonists of retinoid X receptor alpha signaling (AID 588544)
- Condition details: HEK293T RXRa-UAS-bla, beta-lactamase reporter, 18 h; 530 nm emission
Inconclusive results are not listed.
Please go through the items and note down their max response.
State the result as a value with its unit after it.

Short answer for "O=C(O)CCCCCCCC(=O)O" : max response was -21.3%

Short answer for "Cc1ccc(S(=O)(=O)NC(=O)NN2CCCCCC2)cc1" : max response was -3.25%

Short answer for "CC(C)(Oc1ccc(CCNC(=O)c2ccc(Cl)cc2)cc1)C(=O)O" : max response was 19.7%

Short answer for "NC(=Nc1ccccc1)Nc1ccccc1" : max response was 3.91%

Short answer for "COc1cc(Cc2cnc(N)nc2N)cc(OC)c1OC" : max response was 1.73%

Short answer for "COc1ccc(CN(CCN(C)C)c2ccccn2)cc1" : max response was 16.3%

Short answer for "O=c1[nH]c(=O)n([C@H]2C[C@H](O)[C@@H](CO)O2)cc1Br" : max response was 16.6%

----------
- Test system: CP185
- Run description: qHTS profiling for inhibitors of Plasmodium falciparum proliferation (AID 504749); note: nearly all actives have a fitted effect of over 60% in size
- Condition details: P. falciparum in erythrocytes, SYBR Green DNA, 72 h; series mostly up to 28.7 µM
Inconclusive results are not listed. Active and inactive are the calls of the source. Calls follow the shape of the dose curve; as a rule, active = well fitted inhibition curve with a large enough effect; inconclusive = small, poorly fitted or top-dose-only effect; inactive = flat fitted curve, though single readings scatter.
Write down the outcome that applies. Available outcomes: 1 (yes) = active, 0 (no) = inactive

In this assay, the call recorded for "CC(=O)Nc1nnc(S(N)(=O)=O)s1" was what?
0 (no)

In this assay, the call recorded for "CSc1ccc(C(=O)c2[nH]c(=O)[nH]c2C)cc1" was what?
0 (no)

In this assay, the call recorded for "CCN(CC)CC(=O)Nc1c(C)cccc1C" was what?
0 (no)

In this assay, the call recorded for "CC(=O)Oc1cc(C(C)C)c(OCCN(C)C)cc1C" was what?
0 (no)

In this assay, the call recorded for "Nc1ncn([C@@H]2O[C@H](CO)[C@@H](O)[C@H]2O)c(=O)n1" was what?
0 (no)

In this assay, the call recorded for "O=C(O)CCCCCCCC(=O)O" was what?
0 (no)

In this assay, the call recorded for "NC(=O)c1ncn([C@@H]2O[C@H](CO)[C@@H](O)[C@H]2O)c1O" was what?
0 (no)

In this assay, the call recorded for "CN1CCN(C2=Nc3ccccc3Oc3ccc(Cl)cc32)CC1" was what?
0 (no)

In this assay, the call recorded for "O=C(CCNNC(=O)c1ccncc1)NCc1ccccc1" was what?
0 (no)

In this assay, the call recorded for "O=C1CC2(CCCC2)CC(=O)N1CCCCN1CCN(c2ncccn2)CC1" was what?
0 (no)

In this assay, the call recorded for "CCN1CCc2nc(N)oc2CC1" was what?
0 (no)

In this assay, the call recorded for "CCCCNc1c(C(=O)OCC)c(C)nc2c1cnn2CC" was what?
0 (no)

In this assay, the call recorded for "CC(=O)OCC1=C(C(=O)O)N2C(=O)[C@@H](NC(=O)Cc3cccs3)[C@H]2SC1" was what?
0 (no)

In this assay, the call recorded for "O=C(O)CP(=O)(O)O" was what?
0 (no)

In this assay, the call recorded for "COc1ccc(CN(CCN(C)C)c2ccccn2)cc1" was what?
0 (no)

In this assay, the call recorded for "COC(=O)[C@@H](N)Cc1ccc(O)c(O)c1" was what?
0 (no)

In this assay, the call recorded for "CN(C)CCOC(=O)COc1ccc(Cl)cc1" was what?
0 (no)

In this assay, the call recorded for CCCCCN(CCCCC)C(=O)C(CCC(=O)O)NC(=O)c1ccc(Cl)c(Cl)c1 (stereo unspecified) was what?
0 (no)

In this assay, the call recorded for "CN=C(NC#N)NCCSCc1nc[nH]c1C" was what?
0 (no)

In this assay, the call recorded for "Cc1ccc(Cl)c(Nc2ccccc2C(=O)O)c1Cl" was what?
0 (no)

In this assay, the call recorded for "CC(=O)[C@@]1(O)CC[C@H]2[C@@H]3CCC4=CC(=O)CC[C@]4(C)[C@H]3CC[C@@]21C" was what?
0 (no)

In this assay, the call recorded for "CN(C)C/C=C(/c1ccc(Br)cc1)c1cccnc1" was what?
0 (no)

In this assay, the call recorded for Nc1c2c(nc3ccccc13)CCCC2O (stereo unspecified) was what?
0 (no)

In this assay, the call recorded for "CCOC(=O)c1cnc2c(cnn2CC)c1NN=C(C)C" was what?
0 (no)

In this assay, the call recorded for "Cc1ccc(=O)n(-c2ccccc2)c1" was what?
0 (no)

In this assay, the call recorded for CC(C(=O)O)c1ccc(CC2CCCC2=O)cc1 (stereo unspecified) was what?
0 (no)

In this assay, the call recorded for CCOC(=O)C1=C(C)NC(C)=C(C(=O)OC)C1c1cccc(Cl)c1Cl (stereo unspecified) was what?
0 (no)

In this assay, the call recorded for "CN(C)C(=O)Oc1cccc([N+](C)(C)C)c1" was what?
0 (no)

In this assay, the call recorded for "NC(=Nc1ccccc1)Nc1ccccc1" was what?
0 (no)

In this assay, the call recorded for "O=c1[nH]c(=O)n([C@H]2C[C@H](O)[C@@H](CO)O2)cc1Br" was what?
0 (no)

In this assay, the call recorded for "CCN(CC)CCOCCOC(=O)C1(c2ccccc2)CCCC1" was what?
0 (no)

In this assay, the call recorded for OC(CCN1CCCCC1)(c1ccccc1)C1CCCCC1 (stereo unspecified) was what?
0 (no)

In this assay, the call recorded for "CCCN(CCC)CCc1cccc2c1CC(=O)N2" was what?
0 (no)

In this assay, the call recorded for "C[n+]1cc2c3c(ccc2c2ccc4cc5c(cc4c21)OCO5)OCO3" was what?
0 (no)

In this assay, the call recorded for "Brc1c(NC2=NCCN2)ccc2nccnc12" was what?
0 (no)

In this assay, the call recorded for "CCNC(=O)N1CCN(CCCC(c2ccc(F)cc2)c2ccc(F)cc2)CC1" was what?
1 (yes)

In this assay, the call recorded for NS(=O)(=O)c1cc2c(cc1Cl)NC(C1CC3C=CC1C3)NS2(=O)=O (stereo unspecified) was what?
0 (no)

In this assay, the call recorded for NC(Cc1ccc(Cl)cc1)C(=O)O (stereo unspecified) was what?
0 (no)

In this assay, the call recorded for CC(N=C(NC#N)Nc1ccncc1)C(C)(C)C (stereo unspecified) was what?
0 (no)

In this assay, the call recorded for "Cc1cc(C)c(/C=C2\C(=O)Nc3ccccc32)[nH]1" was what?
0 (no)

In this assay, the call recorded for CCN(Cc1ccncc1)C(=O)C(CO)c1ccccc1 (stereo unspecified) was what?
0 (no)
